Hi there, I'd appreciate the recorded Kb for every entry that follows.
target.or.system: 5-hydroxytryptamine receptor 4 (Rattus norvegicus) (UniProt Q62758)
Sequence (Q62758 whole entry): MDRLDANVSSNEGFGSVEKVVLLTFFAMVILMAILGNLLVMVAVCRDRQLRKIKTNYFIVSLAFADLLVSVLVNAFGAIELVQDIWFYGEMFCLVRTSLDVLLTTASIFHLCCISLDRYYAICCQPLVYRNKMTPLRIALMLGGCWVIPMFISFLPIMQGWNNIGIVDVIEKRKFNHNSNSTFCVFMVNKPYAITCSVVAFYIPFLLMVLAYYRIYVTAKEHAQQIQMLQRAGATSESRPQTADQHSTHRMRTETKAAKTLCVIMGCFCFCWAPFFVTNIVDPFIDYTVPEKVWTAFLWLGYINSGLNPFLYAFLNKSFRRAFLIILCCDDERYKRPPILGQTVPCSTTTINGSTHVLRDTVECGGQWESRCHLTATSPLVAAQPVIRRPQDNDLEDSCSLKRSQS
protocol.summary: In vitro 5-hydroxytryptamine 4 receptor activity by using carbachol-precontracted esophageal tunica muscularis mucosae.

Summary for this compound, Nc1ccc(C(=O)N[C@H]2CN3CCC2CC3)c2c1CCO2 : Kb is > 1000 nM

Summary for this compound, O=C(N[C@H]1CN2CCC1CC2)c1cccc2c1OCC2 : Kb is > 1000 nM

Summary for this compound, O=C(N[C@@H]1CN2CCC1CC2)c1cc(Cl)cc2c1OCC2 : Kb is > 100 nM

Summary for this compound, O=C(N[C@@H]1CN2CCC1CC2)c1cccc2c1OCC2 : Kb is > 1000 nM

Summary for this compound, Nc1ccc(C(=O)N[C@@H]2CN3CCC2CC3)c2c1CCO2 : Kb is > 100 nM

Summary for this compound, O=C(N[C@H]1CN2CCC1CC2)c1cc(Cl)cc2c1OCC2 : Kb is > 1000 nM

The reported measurements were obtained from ChEMBL document CHEMBL1128962.
